// 5-hydroxytryptamine receptor 2A (Homo sapiens, UniProt P28223) IC50 records

[2H]c1[nH]c2c([2H])c([2H])c([2H])c([2H])c2c1C1CC([2H])([2H])N(C)C1([2H])[2H] (stereo not drawn)    < 500 nM
CN(C)CCc1c[nH]c2ccccc12    < 500 nM

For 5-hydroxytryptamine receptor 2A (Homo sapiens, UniProt P28223), provide IC50 of [2H]c1[nH]c2c([2H])c([2H])c([2H])c([2H])c2c1C1CCN(C)C1 (stereo not drawn) please.
< 500 nM
